# measurement-description: qHTS Screen of the MIPE 4.0 Collection Against Ewings Sarcoma (RDES) (AID 1259252); note: nearly all actives have a fitted effect of over 35% in size
# measurement-conditions: RD-ES Ewing sarcoma viability, CellTiter-Glo, 48 h; series mostly up to 45.8 µM
# Description: There is a large unmet medical need for treatments for Ewing sarcoma, a pediatric sarcoma. […] Using the NCATS developed oncology compound library called the Mechanism of Interrogation Plate (MIPE), four Ewing sarcoma cell lines were evaluated (TC32, TC71, RDES, EW8). Compounds, in a 12-point titration series, were incubated with cells for 48 hours and the read out was cell viability (CellTiter-Glo from Promega). […]
Inconclusive results are not listed. The source made the active and inactive calls. Calls come from the whole dose curve; as a rule, active = well fitted inhibition curve with a large enough effect; inconclusive = small, poorly fitted or top-dose-only effect; inactive = no such curve, though single readings can be large or run the other way.
Possible outcomes: active, inactive

compound=N[C@@H]1CONC1=O cat=inactive
compound=Cc1[nH]c(=O)c(C#N)cc1-c1ccc2nccn2c1 cat=inactive
compound=CCC(C)(C)C(=O)O[C@H]1C[C@@H](C)C=C2C=C[C@H](C)[C@H](CC[C@@H]3C[C@@H](O)CC(=O)O3)[C@H]21 cat=active
compound="Cc1c(C)c2c(c(C)c1O)CCC(C)(COc1ccc(CC3SC(=O)NC3=O)cc1)O2 (stereo not given)" cat=inactive
compound=Cc1c(CN2CCN(C(=O)C(C)C)CC2)sc2c(N3CCOCC3)nc(-c3cnc(N)nc3)nc12 cat=active

###

# measurement-description: Cell Viability - NIH 3T3 (AID 541);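 note: cells exposed to compound for 40 hours; nearly all actives have a fitted effect of over 25% in size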
# measurement-conditions: NIH 3T3 cell viability, qHTS; series mostly up to 92.2 µM
Results filed as inconclusive are left out. Active and inactive are the calls of the source. Calls follow the shape of the dose curve; as a rule, active = well fitted cell-killing curve with a large enough effect; inconclusive = small, poorly fitted or top-dose-only effect; inactive = flat fitted curve, though single readings scatter.
Possible outcomes: Y (active), N (inactive)

molecule_smiles=NC(=O)c1cnccn1 cat=N
molecule_smiles=Cn1cnc([N+](=O)[O-])c1Sc1ncnc2nc[nH]c12 cat=Y
molecule_smiles=NC(N)=NC(=O)c1nc(Cl)c(N)nc1N cat=N
molecule_smiles=CCCC(CCC)C(=O)O cat=N
molecule_smiles=O=c1[nH]cnc2[nH]ncc12 cat=N
molecule_smiles=CC(=O)Oc1ccccc1C(=O)O cat=N

###

# measurement-description: Quantitative High-Throughput drug screen in 47 multiple myeloma cell lines against the NCATS MIPE library collection: JIM3_ECACC cell viability assay (AID 1918963; note: nearly all actives have a fitted effect of over 35% in size)
# measurement-conditions: JIM3 myeloma viability, CellTiter-Glo ATP, 48 h; series mostly up to 45.8 µM
Records with an inconclusive call do not appear. Active and inactive are the calls of the source. Calls follow the shape of the dose curve; as a rule, active = well fitted cell-killing curve with a large enough effect; inconclusive = small, poorly fitted or top-dose-only effect; inactive = no such curve, though single readings can be large or run the other way.
Possible outcomes: active, inactive

compound=C[C@H](NC(=O)Cc1cc(F)cc(F)c1)C(=O)N[C@@H]1C(=O)N(C)c2ccccc2-c2ccccc21 cat=active
compound=CCn1c(-c2nonc2N)nc2c(C#CC(C)(C)O)ncc(OC[C@H]3CCCNC3)c21 cat=active
compound="CCC(C)n1ncn(-c2ccc(N3CCN(c4ccc(OC[C@H]5CO[C@](Cn6cncn6)(c6ccc(Cl)cc6Cl)O5)cc4)CC3)cc2)c1=O (some centres undefined)" cat=inactive
compound=CC(C)(N)C(=O)N[C@H](COCc1ccccc1)C(=O)N1CCC2(CC1)CN(S(C)(=O)=O)c1ccccc12 cat=active

###

# study-target: Cytochrome P450 2C9 (Homo sapiens) (UniProt P11712)
# Sequence (P11712 whole entry, looked up): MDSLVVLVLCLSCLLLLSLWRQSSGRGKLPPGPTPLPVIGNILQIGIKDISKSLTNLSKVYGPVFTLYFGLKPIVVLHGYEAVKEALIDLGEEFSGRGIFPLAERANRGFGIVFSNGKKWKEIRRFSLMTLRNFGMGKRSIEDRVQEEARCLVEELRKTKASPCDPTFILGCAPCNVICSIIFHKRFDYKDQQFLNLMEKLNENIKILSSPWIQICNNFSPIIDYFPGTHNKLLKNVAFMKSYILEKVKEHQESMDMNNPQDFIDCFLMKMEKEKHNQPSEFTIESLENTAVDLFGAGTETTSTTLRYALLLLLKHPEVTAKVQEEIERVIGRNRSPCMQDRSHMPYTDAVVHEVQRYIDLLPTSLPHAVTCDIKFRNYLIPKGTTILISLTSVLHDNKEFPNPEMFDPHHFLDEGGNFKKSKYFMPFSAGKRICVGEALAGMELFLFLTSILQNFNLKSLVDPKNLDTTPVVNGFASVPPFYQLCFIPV
# measurement-description: Cytochrome P450 family 2 subfamily C member 9 (CYP2C9) small molecule antagonists: luciferase biochemical (cell-free) qHTS assay (AID 1645842); note: nearly all actives have a fitted effect of over 55% in size; note: potency is the fitted concentration of half-maximal effect
# measurement-conditions: P450-Glo CYP2C9 enzyme assay, luciferin luminescence; series mostly up to 57.4 µM
Records with an inconclusive call do not appear. Activity calls are given as the source filed them. Calls come from the whole dose curve; as a rule, active = well fitted inhibition curve with a large enough effect in the repeat runs; inconclusive = weak or mixed curves; inactive = no such curve, though single readings can be large or run the other way.
measured-attribute: Potency

compound=NCCc1ccc(O)c(O)c1 study_target="Cytochrome P450 2C9 (Homo sapiens) (UniProt P11712)" value_reported=inactive
compound=COc1ccccc1-c1cccc(-c2c(O)c3cc(C#N)c(Cl)cc3[nH]c2=O)c1 study_target="Cytochrome P450 2C9 (Homo sapiens) (UniProt P11712)" value_reported="35.5 µM (active)"
compound=C[C@]12CCC(=O)C=C1CC[C@@H]1[C@@H]2[C@@H](O)C[C@@]2(C)[C@H]1CC[C@]2(O)C(=O)CO study_target="Cytochrome P450 2C9 (Homo sapiens) (UniProt P11712)" value_reported=inactive
compound=COc1ccc([C@@H]2CC(=O)c3c(O)cc(O[C@@H]4O[C@H](CO[C@@H]5O[C@@H](C)[C@H](O)[C@@H](O)[C@@H]5O)[C@@H](O)[C@H](O)[C@@H]4O)cc3O2)cc1O study_target="Cytochrome P450 2C9 (Homo sapiens) (UniProt P11712)" value_reported=inactive
compound="CC(C)NCC(O)COc1ccc(COCCOC(C)C)cc1 (stereo not drawn)" study_target="Cytochrome P450 2C9 (Homo sapiens) (UniProt P11712)" value_reported=inactive
compound=CCCC(CCC)C(=O)O study_target="Cytochrome P450 2C9 (Homo sapiens) (UniProt P11712)" value_reported=inactive
compound=COc1cc2nccc(Oc3ccc(NC(=O)NC4CC4)c(Cl)c3)c2cc1C(N)=O study_target="Cytochrome P450 2C9 (Homo sapiens) (UniProt P11712)" value_reported="12 µM (active)"
compound=Cn1cnc2c(F)c(Nc3ccc(Br)cc3Cl)c(C(=O)NOCCO)cc21 study_target="Cytochrome P450 2C9 (Homo sapiens) (UniProt P11712)" value_reported="8.71 µM (active)"

###

# measurement-description: qHTS profiling for inhibitors of Plasmodium falciparum proliferation (AID 504749); note: nearly all actives have a fitted effect of over 60% in size;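 for activity, negative = inhibition: 0% = DMSO vehicle and full inhibition = artemisinin control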
# measurement-conditions: P. falciparum in erythrocytes, SYBR Green DNA, 72 h; at 28.7 µM (top of the series); parasite line A
Records with an inconclusive call do not appear.
measured-attribute: activity, negative = inhibition (%)

molecule=Cc1[nH]c(=O)c(C#N)cc1-c1ccc2nccn2c1 measured_attribute="activity, negative = inhibition" value_reported=5.44
molecule=N=c1nc(N2CCCCC2)cc(N)n1O measured_attribute="activity, negative = inhibition" value_reported=6.18
molecule="CC(C)NCC(O)COc1ccc(COCCOC(C)C)cc1 (configuration not stated)" measured_attribute="activity, negative = inhibition" value_reported=1.04
molecule="NCCCC(N)(C(=O)O)C(F)F (configuration not stated)" measured_attribute="activity, negative = inhibition" value_reported=2.98
molecule=Cc1ccc(N(CC2=NCCN2)c2cccc(O)c2)cc1 measured_attribute="activity, negative = inhibition" value_reported=-3.3
molecule=N[C@@H]1CONC1=O measured_attribute="activity, negative = inhibition" value_reported=-21
molecule="O=C1CCC(N2C(=O)c3ccccc3C2=O)C(=O)N1 (configuration not stated)" measured_attribute="activity, negative = inhibition" value_reported=3.13

###

# Tested on: FAB9
# measurement-description: qHTS profiling for inhibitors of Plasmodium falciparum proliferation (AID 504749); note: nearly all actives have a fitted effect of over 60% in size
# measurement-conditions: P. falciparum in erythrocytes, SYBR Green DNA, 72 h; series mostly up to 28.7 µM
# Procedure: NIH National Institute of Allergy and Infectious Diseases [NIAID] NIH Chemical Genomics Center [NCGC] […] Because mature erythrocytes lack DNA, only Plasmodium-derived DNA is detected. NCGC Assay Protocol Summary: The SYBR Green viability assay was adapted from a method described previously (Plouffe et al., 2008). […] The following morning, fluorescence intensity at 485(14) nm excitation and 535(25) nm emission wavelengths was measured on an EnVision (Perkin Elmer) plate reader. […]
Results filed as inconclusive are left out. Active and inactive are the calls of the source. Calls come from the whole dose curve; as a rule, active = well fitted inhibition curve with a large enough effect; inconclusive = small, poorly fitted or top-dose-only effect; inactive = flat fitted curve, though single readings scatter.
Possible outcomes: 1.0 = active, 0.0 = inactive

molecule=NCCc1ccc(O)c(O)c1 cat=0.0
molecule=N=c1nc(N2CCCCC2)cc(N)n1O cat=0.0
molecule=CCCCNc1cc(C(=O)O)cc(S(N)(=O)=O)c1Oc1ccccc1 cat=0.0
molecule=NC[C@H](O)c1ccc(O)c(O)c1 cat=0.0
molecule=Cc1oncc1C(=O)Nc1ccc(C(F)(F)F)cc1 cat=0.0
molecule="Cc1ccccc1C(OCCN(C)C)c1ccccc1 (stereo not drawn)" cat=0.0
molecule=CC(C)C[C@H](NC(=O)[C@@H](O)[C@H](N)Cc1ccccc1)C(=O)O cat=1.0
molecule=CCOC(=O)N1CCC(=C2c3ccc(Cl)cc3CCc3cccnc32)CC1 cat=0.0
molecule="NCCCC(N)(C(=O)O)C(F)F (stereo not drawn)" cat=0.0
molecule=CCCc1nc2c(C)cc(-c3nc4ccccc4n3C)cc2n1Cc1ccc(-c2ccccc2C(=O)O)cc1 cat=0.0
molecule="CC(c1cc2ccccc2s1)N(O)C(N)=O (stereo not drawn)" cat=0.0
molecule=C1COC(NC(C2CC2)C2CC2)=N1 cat=0.0
molecule=Cc1cn[nH]c1 cat=0.0

###

# measurement-description: Quantitative High-Throughput drug screen in 47 multiple myeloma cell lines against the NCATS MIPE library collection: Karpas417_ECACC cell viability assay (AID 1918961)
# measurement-conditions: Karpas417 myeloma viability, CellTiter-Glo ATP luminescence, 48 h
Records with an inconclusive call do not appear. Active and inactive are the calls of the source. The call rests on the fitted dose curve; in most records, active means well fitted cell-killing curve with a large enough effect; inconclusive means small, poorly fitted or top-dose-only effect, or effect the other way; inactive means no such curve, though single readings can be large or run the other way.
Possible outcomes: active, inactive

molecule_smiles=CO[C@@H]1[C@H](N(C)C(=O)c2ccccc2)C[C@H]2O[C@]1(C)n1c3ccccc3c3c4c(c5c6ccccc6n2c5c31)C(=O)NC4 cat=active
molecule_smiles=Cc1cc(-c2ccc(CC(=O)Nc3ccc(-c4cccnc4)cc3)cc2)ccn1 cat=active
molecule_smiles=O=C(Nc1nc2ccccc2n1CCN1CCOCC1)c1cccc([N+](=O)[O-])c1 cat=active
molecule_smiles=Nc1ncnc2nc(-c3ccc(N4CCOCC4)nc3)cc(-c3cccc(Br)c3)c12 cat=inactive
molecule_smiles=CCOc1cc(C=C2C(=O)N(c3ccccc3)N=C2C)cc(Cl)c1OCC(=O)OC cat=active
molecule_smiles=CC[C@H](Nc1ncnc2nc[nH]c12)c1nc2cccc(F)c2c(=O)n1-c1ccccc1 cat=inactive
molecule_smiles=COc1cc2nccc(Oc3ccc(NC(=O)NC4CC4)c(Cl)c3)c2cc1C(N)=O cat=inactive
molecule_smiles=CC(C)(N)C(=O)N[C@H](COCc1ccccc1)C(=O)N1CCC2(CC1)CN(S(C)(=O)=O)c1ccccc12 cat=inactive
molecule_smiles=COc1ccc2c3n(c(=NC(=O)c4cccnc4)nc2c1OC)CCN3 cat=inactive
